B1: PPP2R2B (parent)
chain: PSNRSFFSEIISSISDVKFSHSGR

Variants of: B1
Assay: protein stability index of a GFP-peptide fusion (GPS, HEK-293T) (PSI 1-6); higher = more stable;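 further: lentivirally expressed fusions sorted by FACS into six bins by GFP to DsRed ratio, PSI derived from sequencing read proportions per bin multiplied by bin number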
Details: c terminus: a fixed tail appended
REPORTED METRIC: protein stability index
Give the figure by itself; no unit, no explanation.

# example entries with known answers
F19L :: 2.93
S2L :: 1.95
D16L :: 2.05

Value lookup for protein stability index; key = D16S
1.92

Value lookup for protein stability index; key = I11C
4.01

Value lookup for protein stability index; key = F19W
1.97

Value lookup for protein stability index; key = E9A
2.12

Value lookup for protein stability index; key = F19E
3.58

Value lookup for protein stability index; key = S22C
1.89

Value lookup for protein stability index; key = S15K
2.35
